- assay.explanation: In vitro cytotoxicity, MTT assay
- Format: cell-based
- particulars: human, HepG2 cells; HepG2, 200 μg/mL, 24 h, control = 100; read-out: Cell Viability
recorded.endpoint: viability at 24 h, 200 μg/mL (%)
Give a bare numeral; the unit % is implied.

Requested field: viability at 24 h, 200 μg/mL. Item: CCc1ccc(NC(=S)NN=Cc2cc3cc(C)ccc3nc2N2CCCCC2)cc1
99.6

What do we get for Cc1ccc2nc(N3CCCCC3)c(C=NNC(=S)Nc3cccc(Cl)c3)cc2c1 ?
93.9

What do we get for Cc1ccc2nc(N3CCCCC3)c(C=NNC(=S)Nc3ccccc3F)cc2c1 ?
83.8

What do we get for Cc1ccc2nc(N3CCCCC3)c(C=NNC(=S)NCCN3CCOCC3)cc2c1 ?
109

What do we get for Cc1ccc2nc(N3CCCCC3)c(C=NNC(=S)Nc3cccc(F)c3)cc2c1 ?
97.2

What do we get for Cc1cccc2cc(C=NNC(=S)Nc3ccc(Cl)cc3)c(N3CCCCC3)nc12 ?
111

What do we get for Cc1cccc2cc(C=NNC(=S)Nc3cccc(Cl)c3)c(N3CCCCC3)nc12 ?
109

What do we get for Cc1ccc2nc(N3CCCCC3)c(C=NNC(=S)Nc3ccccc3)cc2c1 ?
139
